test: Toxicity liver stage against HepG2, at 10uM; type: cell-based; parameters: test concentration 10 uM, cell line HepG2-A16-CD81EGFP; details: human, HepG2-A16-CD81EGFP cells; read-out: INHIBITION
Field: cytotoxicity at 10 µM. Provide a value for each of the compounds that follow.
Just the number in %, nothing appended.

According to the records, this compound Cc1cc(S(C)(=O)=O)c(C)c(S(=O)(=O)NCC2CCCO2)c1 (stereo not drawn) displays cytotoxicity at 10 µM of -8.02

According to the records, this compound Cc1cc(NC(=O)CN2CCCCC2Cn2nc(C)nc2C)on1 (stereo not drawn) displays cytotoxicity at 10 µM of -2.19

According to the records, this compound CCCc1n[nH]c(C2CN(C(=O)c3cc(F)ccc3OC)CCO2)n1 (stereo not drawn) displays cytotoxicity at 10 µM of -5.58

According to the records, this compound CC(NC(=O)NCCc1nc(C(F)(F)F)cs1)C(=O)N(C)C (stereo not drawn) displays cytotoxicity at 10 µM of 5.04

According to the records, this compound CSCCC(=O)N1C[C@H](Nc2ccnc(C)n2)[C@@H](C(C)C)C1 displays cytotoxicity at 10 µM of -1.13

According to the records, this compound CN(C)Cc1ccc(C(=O)N2CCCC(n3cccn3)C2)cc1 (stereo not drawn) displays cytotoxicity at 10 µM of -0.798

According to the records, this compound O=c1cc(Cn2cncn2)nc2n1CCCN(Cc1ccc(F)cc1)C2 displays cytotoxicity at 10 µM of 4.43

According to the records, this compound c1coc(CN2CCO[C@H]3[C@H](OCC4CC4)CC[C@@H]32)c1 displays cytotoxicity at 10 µM of 5.22

According to the records, this compound CCS(=O)(=O)NC[C@]12COC[C@H]1CN(CCc1ccccc1)C2 displays cytotoxicity at 10 µM of 6.07

According to the records, this compound CCC(=O)N1CCCC(c2ncc3c(n2)CCN(C)C3)C1 (stereo not drawn) displays cytotoxicity at 10 µM of -8.77

According to the records, this compound CN(C)Cc1cnc(C2CN(C(=O)c3ccccc3Cl)CCO2)[nH]1 (stereo not drawn) displays cytotoxicity at 10 µM of 1.07

According to the records, this compound CO[C@@H]1CN(C)S(=O)(=O)[C@@]12CCN(Cc1ccccc1)C2 displays cytotoxicity at 10 µM of 3.02

According to the records, this compound CCn1cc(C2=CCN(CCCOc3ccccc3)CC2)cn1 displays cytotoxicity at 10 µM of -9.98

According to the records, this compound CN1CCCC2(CCN(C(=O)Cc3cc4c(cc3Cl)OCCO4)C2)C1=O (stereo not drawn) displays cytotoxicity at 10 µM of 10.1

According to the records, this compound O=C(O)c1cc2c(nc1O)CC(c1cccc(Cl)c1)CC2=O (stereo not drawn) displays cytotoxicity at 10 µM of 9.56

According to the records, this compound c1cnc(N2CCC3(CCN(Cc4cccnc4)CC3)CC2)nc1 displays cytotoxicity at 10 µM of -88.4

According to the records, this compound Cc1cccc(C(C)(C)CNc2cn[nH]c(=O)c2Cl)c1 displays cytotoxicity at 10 µM of 23.3

According to the records, this compound c1ncn(CC2CCCN(Cc3nnc(C4CC4)o3)C2)n1 (stereo not drawn) displays cytotoxicity at 10 µM of -14.5

According to the records, this compound CC(C)Cn1cncc1-c1nc2c([nH]1)CCCNC2=O displays cytotoxicity at 10 µM of 15

According to the records, this compound O=C(NC1CC1)C1CNCCN1C(=O)CCOc1ccccc1 (stereo not drawn) displays cytotoxicity at 10 µM of 2.08

According to the records, this compound CC(C)Cn1ccnc1CNC(=O)NC(C)c1nccs1 (stereo not drawn) displays cytotoxicity at 10 µM of -14.3

According to the records, this compound COc1cccc(-c2cc(C(=O)NCCCn3nc(C)cc3C)[nH]n2)c1 displays cytotoxicity at 10 µM of -5.86

According to the records, this compound O=C(NCC(F)(F)C(F)F)c1cccnc1 displays cytotoxicity at 10 µM of 15.4

According to the records, this compound CCCS(=O)(=O)c1ccc(N2CCN(Cc3ccccc3)CC2)nn1 displays cytotoxicity at 10 µM of -5.93

According to the records, this compound NCCC(=O)Nc1ccc(-c2ccccc2)cc1 displays cytotoxicity at 10 µM of -1.81

According to the records, this compound Cc1cc(CN2CCC(c3nccn3C(C)C)CC2)ccc1F displays cytotoxicity at 10 µM of 5.22

According to the records, this compound CC(C)N1CCCC2(CCN(Cc3noc(C4CCCC4)n3)C2)C1=O (stereo not drawn) displays cytotoxicity at 10 µM of 2.24

According to the records, this compound O=C(NCc1cc[nH]n1)N1CCN(c2ncccn2)CC1 displays cytotoxicity at 10 µM of -3.29

According to the records, this compound NC(=O)c1ccc2c(c1)nc1n2CCN(Cc2cccnc2)C1 displays cytotoxicity at 10 µM of 10.3

According to the records, this compound CCn1cncc1CN(Cc1ccc(OC)cc1OC)CC1CCCO1 (stereo not drawn) displays cytotoxicity at 10 µM of -18

According to the records, this compound Cc1ccccc1CNC(=O)C1CCN(Cc2nccn2C)CC1 displays cytotoxicity at 10 µM of -17.9

According to the records, this compound CS(=O)(=O)N1CCC(Nc2ccnc3ccc(Cl)cc23)CC1 displays cytotoxicity at 10 µM of 54.3

According to the records, this compound CCN1CCC(CNC(=O)C2(c3cccc(C)c3)CC2)C1 (stereo not drawn) displays cytotoxicity at 10 µM of 1.42
